TARGET_DESC: protein farnesyltransferase (Rattus norvegicus, UniProt Q02293+Q04631)
Construct: The enzyme is purified according to Reiss, Y., et al., Cell, 62: 81-88 (1990), utilizing steps one through three; from tissue; host or cells: rat brain
EXPERIMENT_SUMMARY: Inhibition of farnesyltransferase (scintillation proximity assay, rat brain enzyme, biotin-K Ras B fragment substrate)
Format: biochemical
RUN_PARAMETERS: 1 × 10^-8 M (Table 4)
Readings of % inhibition of farnesyltransferase at 1 × 10^-8 M for the listed compounds
PROPERTY: % inhibition of farnesyltransferase at 1 × 10^-8 M (%)

COMPOUND: CSCC[C@H](NC(=O)c1ccc(COCc2ccccc2Cl)cc1-c1ccccc1C)C(=O)[O-].[Li+]
TARGET_DESC: protein farnesyltransferase (Rattus norvegicus, UniProt Q02293+Q04631)
OBSERVED: 66

COMPOUND: CSCC[C@H](NC(=O)c1ccc(COC(Cc2ccccc2)c2cncs2)cc1-c1ccccc1C)C(=O)[O-].[Li+] (stereo partly shown)
TARGET_DESC: protein farnesyltransferase (Rattus norvegicus, UniProt Q02293+Q04631)
OBSERVED: 87

COMPOUND: CSCC[C@H](NC(=O)c1ccc(CN(C)CCC2CCCCC2)cc1-c1ccccc1C)C(=O)[O-].[Li+]
TARGET_DESC: protein farnesyltransferase (Rattus norvegicus, UniProt Q02293+Q04631)
OBSERVED: 91

COMPOUND: CSCC[C@H](NC(=O)c1ccc(CN(Cc2cncs2)S(=O)(=O)c2ccc(C)cc2)cc1-c1ccccc1C)C(=O)O
TARGET_DESC: protein farnesyltransferase (Rattus norvegicus, UniProt Q02293+Q04631)
OBSERVED: 68

COMPOUND: CSCC[C@H](NC(=O)c1ccc(CN[C@H](CSC2CCCCC2)CC2CCCCC2)cc1-c1ccccc1C)C(=O)O
TARGET_DESC: protein farnesyltransferase (Rattus norvegicus, UniProt Q02293+Q04631)
OBSERVED: 95

COMPOUND: CSCC[C@H](NC(=O)c1ccc(COCc2cnc(-c3cccc(Cl)c3)s2)cc1-c1ccccc1C)C(=O)[O-].[Li+]
TARGET_DESC: protein farnesyltransferase (Rattus norvegicus, UniProt Q02293+Q04631)
OBSERVED: 88

COMPOUND: CSCC[C@H](NC(=O)c1ccc(CN(C(C)=O)C(CC2CCCCC2)CC2CCCCC2)cc1-c1ccccc1C)C(=O)O
TARGET_DESC: protein farnesyltransferase (Rattus norvegicus, UniProt Q02293+Q04631)
OBSERVED: 79
